Molecular target: recombinant human AMPK complex 7 (containing α2β1γ1) (Homo sapiens, UniProt P54646+Q9Y478)
Construct: made in house; host or cells: Spodoptera frugiperda Sf21 cells, baculovirus, triple infection (one virus per subunit)
Sequence (P54646 whole entry): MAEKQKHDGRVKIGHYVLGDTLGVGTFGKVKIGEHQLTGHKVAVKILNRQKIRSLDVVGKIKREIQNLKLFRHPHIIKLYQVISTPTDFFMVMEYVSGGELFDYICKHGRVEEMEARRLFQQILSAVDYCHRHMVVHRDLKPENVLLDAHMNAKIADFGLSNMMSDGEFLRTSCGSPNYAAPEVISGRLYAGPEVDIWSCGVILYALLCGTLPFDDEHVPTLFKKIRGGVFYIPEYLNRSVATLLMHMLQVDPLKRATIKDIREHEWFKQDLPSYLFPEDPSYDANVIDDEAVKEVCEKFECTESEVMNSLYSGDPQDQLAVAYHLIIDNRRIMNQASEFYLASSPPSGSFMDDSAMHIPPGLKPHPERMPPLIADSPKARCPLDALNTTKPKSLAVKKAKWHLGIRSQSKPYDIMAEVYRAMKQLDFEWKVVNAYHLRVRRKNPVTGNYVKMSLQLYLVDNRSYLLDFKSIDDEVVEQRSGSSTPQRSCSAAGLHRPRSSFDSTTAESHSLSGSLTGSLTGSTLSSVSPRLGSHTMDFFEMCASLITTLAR
Sequence (Q9Y478 whole entry): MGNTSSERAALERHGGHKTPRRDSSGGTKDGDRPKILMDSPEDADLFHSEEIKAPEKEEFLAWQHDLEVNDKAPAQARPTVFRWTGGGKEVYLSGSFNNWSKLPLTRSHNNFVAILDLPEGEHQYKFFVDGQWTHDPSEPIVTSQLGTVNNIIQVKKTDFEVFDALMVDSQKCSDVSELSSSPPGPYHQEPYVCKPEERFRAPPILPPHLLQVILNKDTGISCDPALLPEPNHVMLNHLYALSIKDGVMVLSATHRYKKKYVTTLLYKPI
Sequence (P54619 whole entry partner): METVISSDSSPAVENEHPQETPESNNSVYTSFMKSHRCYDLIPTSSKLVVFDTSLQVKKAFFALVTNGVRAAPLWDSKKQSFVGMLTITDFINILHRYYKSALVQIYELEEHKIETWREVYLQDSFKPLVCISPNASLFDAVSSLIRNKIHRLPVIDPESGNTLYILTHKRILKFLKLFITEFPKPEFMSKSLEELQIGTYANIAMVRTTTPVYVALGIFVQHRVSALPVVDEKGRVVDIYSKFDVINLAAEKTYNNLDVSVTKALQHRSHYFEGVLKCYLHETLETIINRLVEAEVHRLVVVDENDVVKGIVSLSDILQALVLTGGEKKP
Assay: In vitro AMPK activation assay (AMPKSAMSF), complex 7
Format: biochemical
Details: recombinant human AMPK complex 7 (α2β1γ1); 10-point titration expressed as % maximum AMP activation
Outcome measure: Emax (%)
Numbers only, in %.

Would you please look over these solved cases?
Oc1ccnc(-c2ccc(-c3ccc(-c4c(F)cc5[nH]c(O[C@@H]6CO[C@H]7[C@@H]6OC[C@H]7O)nc5c4F)cc3)cc2)n1 [Example 41] ... 380
O[C@@H]1CO[C@H]2[C@@H]1OC[C@H]2Oc1nc2c(F)c(-c3ccc(-c4ccc(C5CNCCO5)cc4)cc3)c(F)cc2[nH]1 (stereo partly drawn) [Example 34] ... 263
O[C@@H]1CO[C@H]2[C@@H]1OC[C@H]2Oc1nc2cc(-c3ccc(-c4ccc(-n5ccnn5)cc4)cc3)c(Cl)cc2[nH]1 [Example 73] ... 384
O=C1NCCC1c1ccc(-c2ccc(-c3cc4nc(O[C@@H]5CO[C@H]6[C@@H]5OC[C@H]6O)[nH]c4cc3Cl)cc2)cc1 (stereo partly drawn) [Example 83] ... 365
O[C@@H]1CO[C@H]2[C@@H]1OC[C@H]2Oc1nc2cc(-c3ccc(-c4ccc(-n5cccn5)cc4)cc3)c(Cl)cc2[nH]1 [Example 74] ... 369

Batch request: Emax for each of the following compounds.
1. O=C(O)C1CC1c1ccc(-c2ccc(-c3cc4nc(O[C@@H]5CO[C@H]6[C@@H]5OC[C@H]6O)[nH]c4cc3Cl)cc2)cc1 (stereo partly drawn) [Example 57]
2. N=c1nc(N)[nH]n1-c1ccc(-c2ccc(-c3cc4nc(O[C@@H]5CO[C@H]6[C@@H]5OC[C@H]6O)[nH]c4cc3Cl)cc2)cc1 [Example 77]
3. O=S(=O)(c1ccc(-c2ccc(-c3cc4nc(O[C@@H]5CO[C@H]6[C@@H]5OC[C@H]6O)[nH]c4cc3Cl)cc2)cc1)C1CCNCC1 [Example 79]
4. CC(CO)(CO)c1ccc(-c2ccc(-c3c(F)cc4[nH]c(O[C@@H]5CO[C@H]6[C@@H]5OC[C@H]6O)nc4c3F)cc2)cc1 [Example 33]

[out]
1: 356; 2: 368; 3: 381; 4: 316

Batch request: Emax for each of the following compounds.
1. CC(CO)(CO)c1ccc(-c2ccc(-c3cc4nc(O[C@@H]5CO[C@H]6[C@@H]5OC[C@H]6O)[nH]c4cc3Cl)cc2)cc1 [Example 71]
2. CNC(=O)c1ccc(-c2ccc(-c3cc4nc(O[C@@H]5CO[C@H]6[C@@H]5OC[C@H]6O)[nH]c4cc3Cl)cc2)cc1 [Example 76]
3. O=C1NCCC1c1ccc(-c2ccc(-c3c(F)cc4[nH]c(O[C@@H]5CO[C@H]6[C@@H]5OC[C@H]6O)nc4c3F)cc2)cc1 (stereo partly drawn) [Example 40]

[out]
352
386
364

----------
Target: recombinant human AMPK complex 1 (containing α1β1γ1) (Homo sapiens, UniProt Q13131+Q9Y478)
Construct: made in house; host or cells: Spodoptera frugiperda Sf21 cells, baculovirus, triple infection (one virus per subunit)
Sequence (Q13131 whole entry, one chain of several): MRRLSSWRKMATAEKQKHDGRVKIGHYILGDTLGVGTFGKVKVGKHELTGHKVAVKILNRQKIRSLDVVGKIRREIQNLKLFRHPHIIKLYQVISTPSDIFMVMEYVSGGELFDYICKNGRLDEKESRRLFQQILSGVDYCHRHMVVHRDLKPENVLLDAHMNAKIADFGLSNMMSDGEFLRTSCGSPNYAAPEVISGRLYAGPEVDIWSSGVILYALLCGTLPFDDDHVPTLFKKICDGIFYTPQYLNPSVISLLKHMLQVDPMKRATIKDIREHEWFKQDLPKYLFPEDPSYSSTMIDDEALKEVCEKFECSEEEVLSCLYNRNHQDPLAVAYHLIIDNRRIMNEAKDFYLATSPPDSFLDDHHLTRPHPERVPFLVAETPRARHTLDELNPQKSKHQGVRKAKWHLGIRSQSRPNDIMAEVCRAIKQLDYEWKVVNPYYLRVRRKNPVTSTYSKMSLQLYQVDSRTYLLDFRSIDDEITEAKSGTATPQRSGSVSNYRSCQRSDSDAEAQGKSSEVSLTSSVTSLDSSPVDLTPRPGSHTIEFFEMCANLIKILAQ
Assay: In vitro AMPK activation assay (AMPKSAMSF), complex 1
Assay type: biochemical
Details: recombinant human AMPK complex 1 (α1β1γ1); 10-point titration expressed as % maximum AMP activation
% Maximum AMP Activation of human AMPK Complex 1 of 400% or higher: Fulfilled. Under 400%: Not fulfilled.

Here's what some known entries look like.
O[C@@H]1CO[C@H]2[C@@H]1OC[C@H]2Oc1nc2cc(-c3ccc(-c4ccccc4)cc3)c(Cl)cc2[nH]1 ... Not fulfilled
O[C@@H]1CO[C@H]2[C@@H]1OC[C@H]2Oc1nc2c(F)c(-c3ccc(-c4ccccc4)cc3)c(F)cc2[nH]1 ... Fulfilled

[in] Could you please find out whether CC(C)(O)c1ccc(-c2ccc(-c3c(F)cc4[nH]c(O[C@@H]5CO[C@H]6[C@@H]5OC[C@H]6O)nc4c3F)cc2)cc1 has % Maximum AMP Activation of human AMPK Complex 1 that meets 400% or exceeds it?
[out] Fulfilled

[in] Could you please find out whether OCc1ccc(-c2ccc(-c3c(F)cc4[nH]c(O[C@H]5COC6C5OC[C@@H]6O)nc4c3F)cc2)cc1 (stereo partly drawn) has % Maximum AMP Activation of human AMPK Complex 1 that meets 400% or exceeds it?
[out] Not fulfilled

[in] Could you please find out whether O=C(c1ccc(-c2ccc(-c3c(F)cc4[nH]c(O[C@H]5COC6C5OC[C@@H]6O)nc4c3F)cc2)cc1)N1CC[C@@H](O)C1 (stereo partly drawn) has % Maximum AMP Activation of human AMPK Complex 1 that meets 400% or exceeds it?
[out] Not fulfilled

[in] Could you please find out whether CS(=O)(=O)c1ccc(-c2ccc(-c3cc4nc(O[C@@H]5CO[C@H]6[C@@H]5OC[C@H]6O)[nH]c4cc3Cl)cc2)cc1 has % Maximum AMP Activation of human AMPK Complex 1 that meets 400% or exceeds it?
[out] Not fulfilled

----------
Biological target: recombinant human AMPK complex 7 (containing α2β1γ1) (Homo sapiens, UniProt P54646+Q9Y478)
Construct: made in house; host or cells: Spodoptera frugiperda Sf21 cells, baculovirus, triple infection (one virus per subunit)
Test: In vitro AMPK activation assay (AMPKSAMSF), complex 7
Type: biochemical
Details: recombinant human AMPK complex 7 (α2β1γ1); 10-point titration expressed as % maximum AMP activation
Exercise: state measured Emax for each of the compounds provided.
One number for each entry, in %.

Would you please look over these solved cases?
CNC(=O)c1ccc(-c2ccc(-c3c(F)cc4[nH]c(O[C@@H]5CO[C@H]6[C@@H]5OC[C@H]6O)nc4c3F)cc2)cc1 ... 364
O=C(O)C1CC1c1ccc(-c2ccc(-c3c(F)cc4[nH]c(O[C@@H]5CO[C@H]6[C@@H]5OC[C@H]6O)nc4c3F)cc2)cc1 (stereo partly shown) ... 350

Batch request: Emax for each of the following compounds.
1. O=c1ncn(-c2ccc(-c3ccc(-c4cc5nc(O[C@@H]6CO[C@H]7[C@@H]6OC[C@H]7O)[nH]c5cc4Cl)cc3)cc2)[nH]1
2. O[C@@H]1CO[C@H]2[C@@H]1OC[C@H]2Oc1nc2c(F)c(-c3ccc(-c4ccc(-n5ccnn5)cc4)cc3)c(F)cc2[nH]1
3. Oc1ccnc(-c2ccc(-c3ccc(-c4cc5nc(O[C@@H]6CO[C@H]7[C@@H]6OC[C@H]7O)[nH]c5cc4Cl)cc3)cc2)n1
4. O[C@@H]1CO[C@H]2[C@@H]1OC[C@H]2Oc1nc2cc(-c3ccc(-c4ccc(C5CNCCO5)cc4)cc3)c(Cl)cc2[nH]1 (stereo partly shown)
5. N=c1nc(N)[nH]n1-c1ccc(-c2ccc(-c3c(F)cc4[nH]c(O[C@@H]5CO[C@H]6[C@@H]5OC[C@H]6O)nc4c3F)cc2)cc1

[out]
359
341
344
324
348

----------
Biological target: recombinant human AMPK complex 7 (containing α2β1γ1) (Homo sapiens, UniProt P54646+Q9Y478)
Construct: made in house; host or cells: Spodoptera frugiperda Sf21 cells, baculovirus, triple infection (one virus per subunit)
Assay: In vitro AMPK activation assay (AMPKSAMSF), complex 7
Assay type: biochemical
Conditions: recombinant human AMPK complex 7 (α2β1γ1); inflection point reflecting 50% of the maximum activation
Description: The recombinant human AMPK complex 1 (containing α1β1γ1) or AMPK complex 7 (containing α2β1γ1) was obtained from baculovirus expression system. […] The in vitro AMPK activation assay is performed in a volume of 30 μl in a 384-well plate. […] Phosphorylated 5-FAM SAMS product is assessed using a Caliper EZ Reader LabChip microfluidics reader. Product conversion is determined by calculating the peak heights of the substrate and product and reporting the product/(product+substrate) peak ratio. […]
// boundary case: EC50 equal to 5 nM maps to condition not met; strictly smaller maps to condition met

N=c1nc(N)[nH]n1-c1ccc(-c2ccc(-c3c(F)cc4[nH]c(O[C@@H]5CO[C@H]6[C@@H]5OC[C@H]6O)nc4c3F)cc2)cc1 ... condition met

[in] Hi there! Is EC50 for CNC(=O)c1ccc(-c2ccc(-c3c(F)cc4[nH]c(O[C@@H]5CO[C@H]6[C@@H]5OC[C@H]6O)nc4c3F)cc2)cc1 below 5 nM, do you know?
[out] condition met

[in] Hi there! Is EC50 for O[C@@H]1CO[C@H]2[C@@H]1OC[C@H]2Oc1nc2cc(-c3ccc(-c4ccc(-n5cccn5)cc4)cc3)c(Cl)cc2[nH]1 below 5 nM, do you know?
[out] condition not met

[in] Hi there! Is EC50 for N=c1nc(N)[nH]n1-c1ccc(-c2ccc(-c3cc4nc(O[C@@H]5CO[C@H]6[C@@H]5OC[C@H]6O)[nH]c4cc3Cl)cc2)cc1 below 5 nM, do you know?
[out] condition not met
